- Tested on: NCI-H1299
- ASSAY_METHOD_TEXT: relative viability (nuclei count vs DMSO), 5 days (fraction); higher = more cells survive
- EXPERIMENTAL_CONDITIONS: first compound 0.253 µM
METRIC: relative viability

## Input Reported relative viability for O=c1cc(-c2cccc3c2Sc2ccccc2S3)oc(N2CCOCC2)c1 + CC1(C)CCC(c2ccc(Cl)cc2)=C(CN2CCN(c3ccc(C(=O)NS(=O)(=O)c4ccc(N[C@H](CCN5CCOCC5)CSc5ccccc5)c(S(=O)(=O)C(F)(F)F)c4)cc3)CC2)C1 [Navitoclax] (partner 0.5 µM) : what is it?
## Output 1.08

## Input Reported relative viability for COc1nc(C)cnc1NS(=O)(=O)c1cccnc1-c1ccc(-c2nnco2)cc1 [Zibotentan] + C[C@@H](Oc1cc(-c2cnn(C3CCNCC3)c2)cnc1N)c1c(Cl)ccc(F)c1Cl [Crizotinib] (partner 1 µM) : what is it?
## Output 0.924

## Input Reported relative viability for COc1nc(C)cnc1NS(=O)(=O)c1cccnc1-c1ccc(-c2nnco2)cc1 [Zibotentan] + Cc1nc(NC(=O)N2CCC[C@H]2C(N)=O)sc1-c1ccnc(C(C)(C)C(F)(F)F)c1 [Alpelisib] (partner 2 µM) : what is it?
## Output 1.05

## Input Reported relative viability for O=c1cc(-c2cccc3c2Sc2ccccc2S3)oc(N2CCOCC2)c1 + C[C@]1(O)C[C@@H](c2nc(-c3ccc4ccc(-c5ccccc5)nc4c3)c3c(N)nccn32)C1 [Linsitinib] (partner 1 µM) : what is it?
## Output 1

## Input Reported relative viability for COc1nc(C)cnc1NS(=O)(=O)c1cccnc1-c1ccc(-c2nnco2)cc1 [Zibotentan] + CS(=O)(=O)CCNCc1ccc(-c2ccc3ncnc(Nc4ccc(OCc5cccc(F)c5)c(Cl)c4)c3c2)o1 [Lapatinib] (partner 2 µM) : what is it?
## Output 0.906

## Input Reported relative viability for O=c1cc(-c2cccc3c2Sc2ccccc2S3)oc(N2CCOCC2)c1 + O=C(c1cc(Cc2n[nH]c(=O)c3ccccc23)ccc1F)N1CCN(C(=O)C2CC2)CC1 [Olaparib] (partner 8 µM) : what is it?
## Output 1.05
